The measurements presented in this section are drawn from the nanobody polyreactivity screen of Harvey et al. (2022).

# protocol summary: yeast display, Sf9 membrane polyspecificity reagent, FACS + sequencing; frameworks hold sequencing errors
test readout: polyreactivity (PSR sort gate)

Some entries whose results are on file:
{"columns": ["residues", "polyreactivity (PSR sort gate)"],
 "data": [
  ["QVQLVESGGGLVQAGGSLRLSCAASGRPFYKNTMGWYRQAPGKEREFVATISASGGSTYYADSVKGRFSSSRDNATNTVYLQMNSLKPEDTAVYYCAKRDYAGYAVHIGGDMNYWGQGTQVTVSS", "low polyreactivity"],
  ["QVQLVESGGGLVQAGGSRRLSCAASGNTIYFYVMGWYRQAPGKERELVAAISSSGGSTYYADSVKGRFTISRDNAKNTVYLQMNSLKPEDTSVYYCAAEMYLSRLRYWYDYWGQGTQVTVSS", "high polyreactivity"],
  ["QVQLVSSGGRLVQSGGSLRLSCAASGRTFYPYAMGWYRQAPGKERELVAGIRNSGTSTYYADSVKGRFTISRDNAKNTVYLQMNSLKPEVTAVYYCNARGYRNRGYGYDSWGQGTQVTVSS", "high polyreactivity"],
  ["QVQLVESGGGLVQAGGSLRLSCAASGFTFYVNAMGWYRQAPGKERELVAAITDDGDSTYYADSVKGRFTISRDNAKNTVYLQMNSLKPEDTAVYYCNTVYGPDLYGTEYDYWGQGTQVTVSS", "low polyreactivity"],
  ["QVQLVESGGGLVQAGGSLRLSCAASGFTFRRYAMGWYRQAPGKERELVAAITRNGGSTYYADSVKGRFTISRDNAKNTVYLQMNRLKPEDTAVYYCNAVLYTPVYDGFDSWGQGTQVTVSS", "high polyreactivity"],
  ["QVQLVESGGGLVQAGGSLRLSCAASGNIFYWNVMGWYRQAPGKERELVAVISNGGRTYYADSVKGRFTISRDNAKNTVYLQMNSLKPEDTAVYYCAAEYDRLSKRYDYWGQGTQVTVSS", "high polyreactivity"]
]}

Consider the sequence QVQLVESGGGLVQAGGSLRLSCAASGSIFGIYAKGWYRQAPGKERELVAAITTTGGTSDYADSVKGRFTISRENAKNTVYVQMKSLKPVDTAVYYCAADAYYYWYYSLDYYYWGQGTQVTVSS and give its measured polyreactivity (PSR sort gate). high polyreactivity

Consider the sequence QDQLVESGGGLVQAGGSLRLSCAASGRTFYDNAMGWYRQAPGKERELVAAITWRGGGTYYADSVKGRFTISRDNAKNTVYLQMNSLKPEDTAVYYCAADSSGTGFYAYTDGEEKYSWGQGTQVTVSS and give its measured polyreactivity (PSR sort gate). high polyreactivity

Consider the sequence QVQLVESGGGLVQAGGSLRLSCAASVRIFSINAMGWYRQAPGKERELVAAINSGGSTHYADSVKGRFTISRDNAKNTVYLQMNSLKPEDTAGYYCAARKTVSYFRVRTFDYWGQGTQVTVSS and give its measured polyreactivity (PSR sort gate). low polyreactivity

Consider the sequence QVQLVESGGGLVQAGGSLRLSCAAYGRTISRNTMAWYRQAPGKERELVAGITYGGDRTYYADSVKGRFTISRDNAKNTVYLQMNSLKPEDTSVYYCAAPWYWKGLRDYWGQGTQVTVSS and give its measured polyreactivity (PSR sort gate). low polyreactivity

Consider the sequence QVQLVESGGGLVQAGGSLRLSCAASGRIFFYAMGWYRQAPGKERELVASITTSGTSTYYADSVKGRFTISRDNAKNTVYLQMNSLKPEDTAVYYCNATSNSIRWYDFYYWGQGTQVTVSS and give its measured polyreactivity (PSR sort gate). low polyreactivity
